test system: SK-MEL-28 melanoma; assay: NCI-60 one-dose screen, 48 h (100 = growth as untreated, 0 = no growth, -100 = all killed); conditions: 10 µM unless noted
The panel holds about 83,000 compounds, 20% with a hit somewhere; the sample as a whole holds those more often.
Kindly state growth for each of the entries shown.
Give just the number in %; leave the unit off.

## Task Which growth is reported for this molecule? Clc1ccc(CO/N=C(\Cn2ccnc2)c2ccc(Cl)cc2Cl)c(Cl)c1
## Result 28

## Task Given Cc1ccc(N2COOC3(OOC2)C2CC4CC(C2)CC3C4)cc1 , state its recorded growth.
## Result 103

## Task Which growth value belongs to CCCCCN(CCCCC)CC(O)c1cc(Cl)ccc1OC (stereo not drawn) ?
## Result 51.7

## Task Sample CC[C@H](C)[C@H](NC(=O)c1nccn1C)C(=O)N(C)[C@H](C[C@@H](OC(C)=O)c1nc(C(=O)N[C@@H](Cc2ccccc2)C[C@H](C)C(=O)OC)cs1)C(C)C — what was its growth?
## Result 51.2

## Task Given the entry COC(=O)CC[C@H](Cc1ccccc1)NC(=O)c1csc([C@@H](C[C@H](C(C)C)N(C)C(=O)[C@@H](NC(=O)[C@H]2CCCCN2C)C(C)C)OC(C)=O)n1 , report its measured growth.
## Result 77.3

## Task Report growth for COc1ccc(C2=CC(c3ccc(OC)c(OC)c3)c3c(c4ccccc4oc3=O)O2)cc1OC (stereo not drawn) please.
## Result 50.9

## Task Fill blank: measured growth of the molecule COC(=O)[C@@H](C)C[C@H](Cc1ccccc1)NC(=O)c1nc([C@@H](C[C@H](C(C)C)N(C)C(=O)[C@@H](NC(=O)[C@H]2CCCCN2C)C(C)C)OC(C)=O)sc1C(C)C is ____.
## Result 49.1

## Task What does the record list as growth for CNCc1cccnc1 ?
## Result 120
